# assay.overview: MTT cell viability assay, MT-4
# Format: cell-based
# measurement.parameters: human, MT-4 cells
value.kind: IC50 at 72 h (µM)
Record the value in µM, omitting the unit from your answer.

[in] Requested read-out: IC50 at 72 h. Entry: CC[N+](CC)(CCCCCC[N+](CC)(CC)CC/N=C1\C[C@H]2CC[C@]1(C)C2(C)C)CC/N=C1\C[C@H]2CC[C@]1(C)C2(C)C [Compound 3b]
[out] 48.3

[in] Requested read-out: IC50 at 72 h. Entry: CC[N+](CC)(CCCCC[N+](CC)(CC)CC/N=C1\C[C@H]2CC[C@]1(C)C2(C)C)CC/N=C1\C[C@H]2CC[C@]1(C)C2(C)C [Compound 3a]
[out] 57.5

[in] Requested read-out: IC50 at 72 h. Entry: CC[N+](CC)(CCCCCCCC[N+](CC)(CC)CC/N=C1\C[C@H]2CC[C@]1(C)C2(C)C)CC/N=C1\C[C@H]2CC[C@]1(C)C2(C)C [Compound 3c]
[out] 69.8

[in] Requested read-out: IC50 at 72 h. Entry: CC[N+](CC)(CCCCCCCCCC[N+](CC)(CC)CC/N=C1\C[C@H]2CC[C@]1(C)C2(C)C)CC/N=C1\C[C@H]2CC[C@]1(C)C2(C)C [Compound 3e]
[out] 66.1

[in] Requested read-out: IC50 at 72 h. Entry: CC[N+](CC)(CCCCCCCCC[N+](CC)(CC)CC/N=C1\C[C@H]2CC[C@]1(C)C2(C)C)CC/N=C1\C[C@H]2CC[C@]1(C)C2(C)C [Compound 3d]
[out] 66
